Tested on: Plasmodium falciparum
Test: Antimalarial activity against chloroquine-sensitive Plasmodium falciparum 3D7 infected in O-positive erythrocytes assessed as parasite growth inhibition after 72 hrs by DNA staining-based assay
Type: functional, organism-based
Details: 3D7, 72 h
Quick reference: EC50 of the listed items.

[
  {
    "givenSmiles": "CCOC(=O)CNC(=O)[C@H](CS[C@H]1[C@@H]2C(=O)/C(C)=C\\C3=C[C@H](C)C[C@@]34O[C@]2(CC1(C)C)[C@@H](C)C4=O)NC(=O)CC[C@H](N)C(=O)O",
    "unitText": "µM",
    "EC50": 15
  },
  {
    "givenSmiles": "CC(=O)O[C@H]1/C=C/C(C)(C)CC2=C(C)C(=O)[C@]3(C[C@@H](C)C=C3/C=C\\1C)O2",
    "unitText": "µM",
    "EC50": 3.2
  },
  {
    "givenSmiles": "C/C1=C/C2=C[C@H](C)C[C@@]23O[C@]2(CC(C)(C)[C@@H](Nc4ccccc4)[C@@H]2C1=O)[C@@H](C)C3=O",
    "unitText": "µM",
    "EC50": 8.88
  },
  {
    "givenSmiles": "C=C1/C=C/C(C)(C)CC2=C(C)C(=O)[C@]3(C[C@@H](C)C=C3/C=C\\1C)O2",
    "unitText": "µM",
    "EC50": 15
  },
  {
    "givenSmiles": "C/C1=C/C2=C[C@H](C)C[C@@]23O[C@]2(CC(C)(C)C[C@@H]2[C@@H]1OC(=S)Sc1ccccc1)[C@@H](C)C3=O",
    "unitText": "µM",
    "EC50": 8.88
  },
  {
    "givenSmiles": "CC1=C2CC(C)(C)/C=C/[C@@H](O)/C(C)=C\\C3=C[C@H](C)C[C@]3(O2)C1=O",
    "unitText": "µM",
    "EC50": 0.744
  },
  {
    "givenSmiles": "COc1ccc(/C2=C\\C(=O)/C(C)=C\\C3=C[C@H](C)C[C@@]34OC(=C(C)C4=O)CC2(C)C)cc1",
    "unitText": "µM",
    "EC50": 15
  }
]
